Source listed as ChEMBL document CHEMBL1122580.

Target: Adenosine deaminase (Bos taurus)
Sequence (P56658 whole entry): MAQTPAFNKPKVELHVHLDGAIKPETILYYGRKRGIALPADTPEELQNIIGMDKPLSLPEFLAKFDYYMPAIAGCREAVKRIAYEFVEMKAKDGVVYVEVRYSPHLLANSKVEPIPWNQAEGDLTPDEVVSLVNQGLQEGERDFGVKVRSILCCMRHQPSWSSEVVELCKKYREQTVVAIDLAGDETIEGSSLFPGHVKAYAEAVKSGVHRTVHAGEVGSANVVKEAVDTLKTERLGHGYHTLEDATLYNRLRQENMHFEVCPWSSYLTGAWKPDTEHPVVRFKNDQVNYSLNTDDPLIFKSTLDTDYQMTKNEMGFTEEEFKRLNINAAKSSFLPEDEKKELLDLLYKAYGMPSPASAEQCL
Test: Binding affinity against calf intestine adenosine deaminase enzyme
pKi: −log10 of the molar value.
MEASURED_QUANTITY: pKi

P: CCCCCC[C@@H]([C@@H](C)O)n1cnc2c(N)ncnc21
Q: CCCCCCC(C(C)O)n1cnc2c(N)ccnc21 (stereo not drawn)
R: Nc1nccc2c1ncn2[C@@H]1O[C@H](CO)[C@@H](O)[C@H]1O
stdin: Put the items in sequence by pKi, from largest down. // list labels; follow requested order
stdout: P, Q, R
(P: 8.15, Q: 6.80, R: 3.44)

====

Target: Adenosine deaminase (Bos taurus)
Test: Binding affinity against calf intestine adenosine deaminase enzyme
MEASURED_QUANTITY: Ki (nM)

The examples below pair each entry with its known result.
compound="CCCCCCC(C(C)O)n1cnc2cnccc21 (stereo unspecified)" scale_unit=nM value_measured=120
compound="OC[C@H]1OC(n2cnc3cccnc32)[C@H](O)[C@@H]1O (stereo partly specified)" scale_unit=nM value_measured=42000
compound=OC[C@H]1O[C@@H](n2cnc3cncnc32)[C@H](O)[C@@H]1O scale_unit=nM value_measured=15000
compound=Nc1ccnc2c1ncn2[C@@H]1O[C@H](CO)[C@@H](O)[C@H]1O scale_unit=nM value_measured=660

A: CCCCCCC(C(C)O)n1cnc2c(N)nccc21 (stereo unspecified)
B: CCCCCCC(C(C)O)n1cnc2cncnc21 (stereo unspecified)
stdin: // compare measured Ki, left A , right B , return larger Please reply using the label of the selected record.
stdout: B
(B: 840 nM, A: 10 nM)
